Molecular target: pkLAP (microsomal LAP from porcine kidney) (Sus scrofa, UniProt P15145)
Construct: purchased Sigma; host or cells: porcine kidney
Sequence (P15145 1-963): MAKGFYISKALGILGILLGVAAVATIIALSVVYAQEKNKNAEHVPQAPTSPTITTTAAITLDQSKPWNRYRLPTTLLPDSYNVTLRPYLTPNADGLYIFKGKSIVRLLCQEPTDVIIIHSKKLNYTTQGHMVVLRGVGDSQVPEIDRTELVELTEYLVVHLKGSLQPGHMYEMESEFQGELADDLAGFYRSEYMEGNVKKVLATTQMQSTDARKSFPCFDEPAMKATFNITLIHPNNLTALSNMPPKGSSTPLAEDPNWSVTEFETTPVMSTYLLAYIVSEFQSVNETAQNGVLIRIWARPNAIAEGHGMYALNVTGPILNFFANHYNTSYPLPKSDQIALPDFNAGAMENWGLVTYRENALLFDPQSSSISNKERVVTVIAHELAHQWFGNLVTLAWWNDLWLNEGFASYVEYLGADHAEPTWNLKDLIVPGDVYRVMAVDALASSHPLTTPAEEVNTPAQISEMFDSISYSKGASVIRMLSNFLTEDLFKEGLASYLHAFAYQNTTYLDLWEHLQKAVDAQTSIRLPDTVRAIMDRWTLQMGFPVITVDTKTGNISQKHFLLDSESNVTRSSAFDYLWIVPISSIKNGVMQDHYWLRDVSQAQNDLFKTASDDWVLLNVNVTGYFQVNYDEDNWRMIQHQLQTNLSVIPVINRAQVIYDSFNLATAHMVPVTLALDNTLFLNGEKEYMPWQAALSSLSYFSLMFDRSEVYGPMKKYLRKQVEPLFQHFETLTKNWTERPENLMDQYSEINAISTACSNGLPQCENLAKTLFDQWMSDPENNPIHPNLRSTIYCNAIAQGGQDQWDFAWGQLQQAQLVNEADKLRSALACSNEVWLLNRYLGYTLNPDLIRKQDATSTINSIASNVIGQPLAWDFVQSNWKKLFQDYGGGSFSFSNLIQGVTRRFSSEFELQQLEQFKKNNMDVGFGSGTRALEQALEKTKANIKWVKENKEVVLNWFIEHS
Test: Effect of inhibitors and metallic cations on LAP activity (Leu-AMC)
Assay type: biochemical
Conditions: cation salt 1 mM, Leu-MCA substrate, 15 min pre-incubation
Simple rule here: pkLAP activity as percentage of control reaction without any cation less than 300% is Satisfied, otherwise Not satisfied.

> print(dat)
                            compound          label
1         [Cl-].[Cl-].[Mg+2] [MgCl2]      Satisfied
2        [Cl][Cu][Cl] [Cu^++, CuCl2]  Not satisfied
3  [Ca+2].[Cl-].[Cl-] [Ca^++, CaCl2]      Satisfied
4  [Cl-].[Cl-].[Co+2] [Co^++, CoCl2]  Not satisfied
5        [Cl][Mn][Cl] [Mn^++, MnCl2]      Satisfied
6           [Cl][Ni][Cl] [Ni, NiCl2]  Not satisfied

* * *

Molecular target: fuLAP1 (Aspergillus fumigatus, UniProt Q5VJG6)
Sequence (Q5VJG6 16-388): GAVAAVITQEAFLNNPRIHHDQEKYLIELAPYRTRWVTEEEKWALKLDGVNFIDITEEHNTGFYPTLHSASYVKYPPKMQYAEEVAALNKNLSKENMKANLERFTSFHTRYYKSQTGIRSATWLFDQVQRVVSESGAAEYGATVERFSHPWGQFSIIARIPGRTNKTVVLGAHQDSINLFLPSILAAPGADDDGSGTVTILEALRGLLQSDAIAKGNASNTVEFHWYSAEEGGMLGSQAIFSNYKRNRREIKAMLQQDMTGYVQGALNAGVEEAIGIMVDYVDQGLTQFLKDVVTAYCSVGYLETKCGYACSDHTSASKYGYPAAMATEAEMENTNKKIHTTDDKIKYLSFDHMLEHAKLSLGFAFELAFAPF
Assay: biochemical
Assay type: biochemical
Conditions: cation salt 1 mM, Leu-MCA substrate, 15 min pre-incubation
outcomeMeasure: fuLAP1 activity as percentage of control reaction without any cation

> print(dat)
         linenotation  valuereported
1        [Cl][Mn][Cl]          28.4%
2  [Cl-].[Cl-].[Co+2]          96.5%
3  [Cl-].[Cl-].[Zn+2]          53.2%
4  [Ca+2].[Cl-].[Cl-]          43.3%
5        [Cl][Ni][Cl]          37.2%
6  [Cl-].[Cl-].[Mg+2]          72.6%
7        [Cl][Cu][Cl]          17.0%

Values from patent US7354734B2
